- assayRemarks: in vitro
- measurementSetup: human

{"compound": "CN(C)CCC=C1c2ccccc2CCc2ccccc21", "CC50": "> 40 µM"}
{"compound": "CCCCCCC(=O)CCCCCC/C=C/C[C@@H](O)[C@H](O)[C@@](N)(CO)C(=O)O", "CC50": "> 40 µM"}
{"compound": "O[C@H]1[C@H](O)[C@@H](O)[C@@H]2O[C@@H]2[C@@H]1O (racemic) [CBE, conduritol B epoxide]", "CC50": "> 40 µM"}

###

Quick reference for CC50 among some molecules
- System: 293FT/ACE2/TMPRSS2/DSP1-7 cells
- measurementSetup: 293FT/ACE2/TMPRSS2/DSP1-7 cells, 2 days, WST-8

{"testSmiles": "Oc1ccc(Nc2nc(-c3ccc(Cl)cc3)cs2)cc1", "CC50": "> 40 µM"}
{"testSmiles": "CCCCCCCCCCCC(=O)N[C@@H](CO)C[C@H](O)c1ccccc1", "CC50": "> 40 µM"}
{"testSmiles": "O=C(/C=C/c1ccc(/C=C/C(=O)Nc2ccc(C3=NCCN3)cc2)cc1)Nc1ccc(C2=NCCN2)cc1", "CC50": "> 40 µM"}
{"testSmiles": "CCCC[C@@H](C)[C@@H](OC(=O)C[C@@H](CC(=O)O)C(=O)O)[C@H](C[C@@H](C)C[C@H](O)CCCC[C@@H](O)C[C@H](O)[C@H](C)N)OC(=O)C[C@@H](CC(=O)O)C(=O)O", "CC50": "> 40 µM"}

Reference source: paper PMC8354230
